# System: Amaranthus retroflexus
# TEST_PROTOCOL: Herbicidal activity against Amaranthus retroflexus assessed as herbicidal damage at 1.5 kg/ha measured after preemergence treatment
# Type: functional
# STUDY_CONDITIONS: pre-emergence
Kindly return T if reported inhibition at 1500 g/ha is no lower than 3%; return F if it is lower.

Here are 2 compounds together with their reported answers.
CCOCCOC(=O)/C(C#N)=C(/CC)NCc1ccoc1; T
CCOCCOC(=O)/C(C#N)=C(/C)NCc1ccco1; T

## Task State whether the measured inhibition at 1500 g/ha reaches 3%, counting equality as reaching it, for CCOCCOC(=O)/C(C#N)=C(/CC)NCC1CCOC1 (stereo unspecified)
## Result T

## Task Is it the case that CCC/C(NCc1ccco1)=C(\C#N)C(=O)OCCOCC has inhibition at 1500 g/ha reaching or exceeding 3%?
## Result F

## Task Does inhibition at 1500 g/ha meet or surpass 3% for CCOCCOC(=O)/C(C#N)=C(/CC)NCc1ccco1 ?
## Result T

## Task Quick check, inhibition at 1500 g/ha >= 3%? CCOCCOC(=O)/C(C#N)=C(/C)NCC1CCCO1 (stereo unspecified)
## Result F

* * *

# System: Medicago sativa
# TEST_PROTOCOL: Herbicidal activity against Medicago sativa (alfalfa) assessed as herbicidal damage at 1.5 kg/ha measured after postemergence treatment
# Format: functional
# STUDY_CONDITIONS: post-emergence
Respond with Criterion met for inhibition at 1500 g/ha values of 20% and above, Criterion not met for values below.

Before answering, review these 8 worked examples.
CCOCCOC(=O)/C(C#N)=C(/NCc1ccco1)SC; Criterion not met
CCC/C(NCC1CCCO1)=C(\C#N)C(=O)OCCOCC (stereo unspecified); Criterion not met
CCOCCOC(=O)/C(C#N)=C(\NCC1CCCO1)C(C)C (stereo unspecified); Criterion met
CCOCCOC(=O)/C(C#N)=C(/CC)NCC1CCOC1 (stereo unspecified); Criterion met
CCC/C(NCc1ccco1)=C(\C#N)C(=O)OCCOCC; Criterion not met
CCOCCOC(=O)/C(C#N)=C(/C)NCC1CCOC1 (stereo unspecified); Criterion not met
CCOCCOC(=O)/C(C#N)=C(/CC)NCc1ccco1; Criterion met
CCOCCOC(=O)/C(C#N)=C(/NCC1CCOC1)SC (stereo unspecified); Criterion not met

Query molecule follows.
## Task Can CCC/C(NCc1ccoc1)=C(\C#N)C(=O)OCCOCC be said to have inhibition at 1500 g/ha at or above 20%?
## Result Criterion met

* * *

The entries below come with measured inhibition at 1500 g/ha values attached.
# System: Brassica napus
# TEST_PROTOCOL: Herbicidal activity against rape Brassica napus (oilseed rape) assessed as herbicidal damage at 1.5 kg/ha measured after postemergence treatment
# Assay type: functional
# STUDY_CONDITIONS: post-emergence
A number alone suffices; assume %.

CCOCCOC(=O)/C(C#N)=C(/C)NCc1ccoc1; 49.8

## Task # lookup: inhibition at 1500 g/ha of CCC/C(NCC1CCCO1)=C(\C#N)C(=O)OCCOCC (stereo unspecified)
## Result 36.3

## Task Would you kindly share the measured inhibition at 1500 g/ha for CCOCCOC(=O)/C(C#N)=C(/CC)NCc1ccoc1 ?
## Result 33.8

## Task Fill in: inhibition at 1500 g/ha of CCC/C(NCC1CCOC1)=C(\C#N)C(=O)OCCOCC (stereo unspecified) is ___
## Result 58.8
